# Measured On: T1, Sec8-His (section 8 (Sec8), an antigenic region of CSP-1, tagged with a polyhistidine (His) tag)
# T1 construct: also called Sec8-His antigen
# T1 chain: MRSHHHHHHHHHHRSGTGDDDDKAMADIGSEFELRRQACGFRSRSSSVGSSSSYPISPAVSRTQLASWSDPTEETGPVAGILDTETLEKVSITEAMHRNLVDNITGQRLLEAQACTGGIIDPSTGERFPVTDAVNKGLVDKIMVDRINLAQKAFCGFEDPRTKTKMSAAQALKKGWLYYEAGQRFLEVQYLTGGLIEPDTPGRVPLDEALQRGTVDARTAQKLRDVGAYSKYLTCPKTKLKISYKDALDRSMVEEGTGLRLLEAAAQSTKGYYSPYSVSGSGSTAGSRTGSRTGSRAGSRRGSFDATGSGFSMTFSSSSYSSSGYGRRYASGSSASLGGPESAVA
# Assay Procedure: BLI (Octet), single shot: antibody on anti-human IgG tips, 24 nM Sec8-His
Assay Metric: binding result

Binder	Assay Metric	Result
humanized anti-CSP-1 antibody, Antibody Number 29 (Table 1) (antibody, human IgG1, V domains shown, also called Antibody 29) VH: EVQLVESGGDLVKPGGSLKLSCAASGFTFSRYGMSWVRQTPDKRLEWVATISIGGTYTYYPDSMKGRFTISRDNAKNTLYLQMSSLKSEDTAMYYCARRGYGNYSYYGMDYWGQGTSVTVSS VL: DIVMTQAAFSNPVTLGTSASISCRSSKSLLHSNGITYLYWYLQKPGQSPQLLIYQISNLASGVPDRFSSSGSGTDFTLRISRVEAEDVGVYYCAQNLELPLTFGAGTKLELK	binding result	binds
humanized anti-CSP-1 antibody, Antibody Number 23 (Table 1) (antibody, human IgG1, V domains shown, also called Antibody 23) VH: EVQLVESGGDLVKPGGSLKLSCAASGFTFSRYGMSWVRQTPDKRLEWVATISIGGTYTYYPDSMKGRFTISRDNAKNTLYLQMSSLKSEDTAMYYCARRGYGNYSYYGMDYWGQGTSVTVSS VL: DIVMTQAAFSNPVTLGTSASISCRSSKSLLHSVGITYLYWYLQKPGQSPQLLIYQMSNLASGVPDRFSSSGSGTDFTLRISRVEAEDVGVYYCAQNLELPLTFGAGTKLELK	binding result	binds
humanized anti-CSP-1 antibody, Antibody Number 43 (Table 1) (antibody, human IgG1, V domains shown, also called Antibody 43) VH: EVQLVESGGGLVKPGGSLRLSCAASGFTFSRYGMNWVRQAPGKGLEWVSSISIGGTYTYYADSVKGRFTISRDNAKNSLYLQMNSLRAEDTAVYYCARRGYGNYSYYGMDYWGQGTLVTVSS VL: DIVMTQSPLSLPVTPGEPASISCRSSKSLLHSNGITYLYWYLQKPGQSPQLLIYQMSNRASGVPDRFSGSGSGTDFTLKISRVEAEDVGVYYCAQNLELPLTFGQGTKLEIK	binding result	binds
